Tested on: Homo sapiens (human subject panel, olfactory perception)
EXPERIMENT_NOTES: perceived odor intensity rating (rating 0-100); higher = stronger perceived smell
STATED_CONDITIONS: odor dilution in paraffin oil: 1/1,000
Hi, to clarify the labels: 1 (yes) covers perceived odor intensity rating from 60 upward, 0 (no) covers anything below 60.

Please review the entries below; each comes with its answer.
MOLECULE | ASSIGNED_LABEL
CC1CCCCC1=O (stereo unspecified) [2-Methylcyclohexanone] | 1 (yes)
CCCCCCCC(=O)OCCCCCC [Hexyl octanoate] | 0 (no)
CCO [ethanol] | 0 (no)
CCc1ccccc1O [2-ethylphenol] | 1 (yes)
c1ccc2ncccc2c1 [Quinoline] | 1 (yes)
CCCCCCCCCC1CCCC(=O)O1 (stereo unspecified) [delta-Tetradecalactone] | 0 (no)
CCc1ccc(O)c(OC)c1 [4-Ethylguaiacol] | 1 (yes)
CC(O)CO (stereo unspecified) [Propylene glycol] | 0 (no)

Query: Exam item: decide whether the reported perceived odor intensity rating for IC(I)I [Iodoform] is at least 60.
Response: 1 (yes)

Query: Exam item: decide whether the reported perceived odor intensity rating for CCCSSCCC [dipropyl disulfide] is at least 60.
Response: 1 (yes)

Query: Exam item: decide whether the reported perceived odor intensity rating for CCCCOC(=O)Cc1ccccc1 [Butyl phenylacetate] is at least 60.
Response: 0 (no)

Query: Exam item: decide whether the reported perceived odor intensity rating for CCOC(=O)CCC(=O)OCC [diethyl succinate] is at least 60.
Response: 0 (no)

Query: Exam item: decide whether the reported perceived odor intensity rating for CCCCCC1=C(C)CCC1=O [Dihydrojasmone] is at least 60.
Response: 1 (yes)

Query: Exam item: decide whether the reported perceived odor intensity rating for CCC(=O)OCC(C)C [Isobutyl propionate] is at least 60.
Response: 0 (no)
